Test system: T-cells, chemotaxis in response to MIP-1β (CCL-4)
Assay: Inhibition of chemotaxis of T-cells in response to MIP-1β (CCL-4)
Type: cell-based
Details: human allo-reactive T cell line; 1 nM MIP-1β; 1 hour at 37° C.; read-out: IC50, concentration which inhibited 50% of the chemotactic response
Experimental: The ability of the compound of the present invention to inhibit the chemotaxis of T-cells in response to MIP-1β (CCL-4) was measured: An allo-reactive T cell line was generated by exposure of human peripheral blood mononuclear cells (PBMCs) to L-DR4/B7 fibroblasts (immobilised with glutaraldehyde fixation and irradiation) and subsequent expansion with IL-2 and anti-CD3. When required, the cells were grown and re-challenged with irradiated HLA-DR4+ve PBMCs and expanded with anti-CD3 and IL-2. […]
Measured Endpoint: IC50 (nM)
State just the number; it will be interpreted in nM.

Inquiry: What measured IC50 goes with Cc1nnc(C(F)(F)F)n1C1CCN(CC[C@@H](c2cc(F)cc(F)c2)C2CCN(S(C)(=O)=O)CC2)CC1 [Comparator Compound A] ?
Reply text: 68

Inquiry: What measured IC50 goes with Cc1nnc(C(C)(F)F)n1C1CCN([C@H](C)C[C@@H](c2cc(F)cc(F)c2)C2CCN(S(C)(=O)=O)CC2)CC1 (single isomer, unassigned) ?
Reply text: 2.1

The measured values listed here are drawn from patent US20080139612A1.
